Just for reference, patent US8865744B1 is where these values come from.

target: human CB2R (Homo sapiens, UniProt P34972); construct: host or cells: CHO cells; assay: CB2 cAMP (Assay 1): In vitro testing of CB2 potency; assay type: cell-based
Sequence (P34972 whole entry): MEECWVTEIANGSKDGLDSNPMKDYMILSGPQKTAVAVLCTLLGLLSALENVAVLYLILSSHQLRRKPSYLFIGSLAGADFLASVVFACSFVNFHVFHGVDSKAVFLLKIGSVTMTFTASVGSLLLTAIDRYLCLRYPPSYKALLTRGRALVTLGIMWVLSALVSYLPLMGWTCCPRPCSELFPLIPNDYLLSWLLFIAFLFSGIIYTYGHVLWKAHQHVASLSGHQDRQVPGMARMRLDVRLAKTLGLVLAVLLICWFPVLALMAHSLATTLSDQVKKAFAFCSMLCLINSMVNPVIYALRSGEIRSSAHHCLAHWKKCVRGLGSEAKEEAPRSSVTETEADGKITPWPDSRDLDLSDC
Quick reference for EC50 among some compounds
Your answer should be a plain number; it is taken to be in µM.

// below: answered compounds
# compound, readout.units, EC50
measured = [
    ("CN(C1CCN(S(C)(=O)=O)CC1)C(C)(C)C(=O)Nc1nnc(C(C)(C)C#N)s1 [Example 8]", "µM", 0.0043),
    ("CN(CC1CCOCC1)C(C)(C)C(=O)Nc1nnc(C(C)(C)C#N)s1 [Example 7]", "µM", 0.025),
    ("COCC(C)(C)c1cc(NC(=O)C(C)(C)S(=O)(=O)CC2CCOCC2)on1 [Example 17 in WO2010036630]", "µM", 0.03),
    ("CC(C)(C#N)c1cc(NC(=O)C(C)(C)S(=O)(=O)CC2CCOCC2)on1 [Example 2]", "µM", 0.104),
    ("CC(C)(O)c1cc(NC(=O)C(C)(C)S(=O)(=O)C2CCOCC2)on1 [Example 133 WO2010036630]", "µM", 0.14),
]

# next compound below
The reported EC50 of the compound CC(C)(C#N)c1cc(NC(=O)C(C)(C)S(=O)(=O)CCCC(F)(F)F)on1 [Example 1] was 0.018

###

target: human CB2R (Homo sapiens, UniProt P34972); construct: host or cells: CHO cells; assay: CB2 cAMP (Assay 1): In vitro testing of CB2 potency; assay type: cell-based; conditions: read-out: CB2 EC50
Quick reference for EC50 among some molecules
Your answer should be a plain number; it is taken to be in nM.

# mol.smiles, target.under.test, readout.units, result.number
records = [
    ("COCC(C)(C)c1cc(NC(=O)C(C)(C)N(C)CC2CCOCC2)on1", "human CB2R (Homo sapiens, UniProt P34972)", "nM", 0.27),
    ("CN(C1CCN(S(C)(=O)=O)CC1)C(C)(C)C(=O)Nc1cc(C(C)(C)CO)no1", "human CB2R (Homo sapiens, UniProt P34972)", "nM", 0.85),
    ("CN(CC1CCOCC1)C(C)(C)C(=O)Nc1cc(C(C)(C)C#N)no1", "human CB2R (Homo sapiens, UniProt P34972)", "nM", 0.36),
]

The reported EC50 of the molecule CC(C)(C#N)c1cc(NC(=O)C(C)(C)S(=O)(=O)C2CCOCC2)on1 was 8
